# Tested system: human plasma kallikrein (human, UniProt P03952 20-638)
# Sequence (P03952 20-638): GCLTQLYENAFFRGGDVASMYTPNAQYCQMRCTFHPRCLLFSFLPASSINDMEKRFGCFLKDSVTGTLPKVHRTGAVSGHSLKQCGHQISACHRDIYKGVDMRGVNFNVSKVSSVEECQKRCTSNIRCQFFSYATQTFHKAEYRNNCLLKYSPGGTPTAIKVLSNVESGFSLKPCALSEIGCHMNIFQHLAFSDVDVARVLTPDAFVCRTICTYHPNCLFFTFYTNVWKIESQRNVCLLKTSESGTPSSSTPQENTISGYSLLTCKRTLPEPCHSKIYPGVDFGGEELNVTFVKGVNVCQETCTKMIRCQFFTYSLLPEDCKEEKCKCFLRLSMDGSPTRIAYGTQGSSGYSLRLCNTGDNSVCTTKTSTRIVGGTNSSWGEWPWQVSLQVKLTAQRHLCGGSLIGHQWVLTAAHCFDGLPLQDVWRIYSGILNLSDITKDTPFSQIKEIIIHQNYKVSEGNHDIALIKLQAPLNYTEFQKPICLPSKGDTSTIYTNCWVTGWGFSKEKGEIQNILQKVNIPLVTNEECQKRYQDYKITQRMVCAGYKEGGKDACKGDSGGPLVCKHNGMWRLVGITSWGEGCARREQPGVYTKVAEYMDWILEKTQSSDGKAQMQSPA
# Measurement description: enzyme inhibition
Returns: string. Value is class 1 if measured Ki is below 40 nM, and class 0 if it is greater than or equal to it.

• TW6142 (protein) EVVREVCSEQAETGPCRAMISRWYFDVTEGKCAPFVYGGCGGNRNNFDTEEYCMAVCGSAI = class 1
• TW6155 (protein) EVVREVCSEQAETGPCRAMISRWYFDVTEGKCAPFFYGGCMGNRNNFDTEEYCMAVCGSAI = class 1
• TW6147 (protein) EVVREVCSEQAETGPCRAMISRWYFDVTEGKCAPFFYGGCAGNRNNFDTEEYCMAVCGSAI = class 1

Ask: Please check: Ki for DD100 (protein) EVVREVCSEQAETGPCRAMISRWYFDVTEGKCAPFFYGGCCGNRNNFDTEEYCMAVCGSAI , strictly under 40 nM or not?
Result: class 1

Ask: Please check: Ki for TW6141 (protein) EVVREVCSEQAETGPCRAMISRWYFDVTEGKCAPFFYGGCQGNRNNFDTEEYCMAVCGSAI , strictly under 40 nM or not?
Result: class 0

Ask: Please check: Ki for DD128 (protein) EVVREVCSEQAETGPCRAMISLWYFDVTEGKCAPFFYGGCGGNRNNFDTEEYCMAVCGSAI , strictly under 40 nM or not?
Result: class 0

Ask: Please check: Ki for TW118 (protein) EVCSEQAETGPCRAMISRWYFDVTEGKCAPFFYGGCRGNRNNFDTEEYCMAVCGSAI , strictly under 40 nM or not?
Result: class 1
